Test: Thermodynamic solubility measurement by HPLC in HDAC buffer / DMSO
Format: physicochemical
Conditions: 24.5 °C, aqueous buffer, thermodynamic from solid; 100% HDAC buffer, ambient (24-25° C.), 48 hours
recorded_endpoint: solubility at 48 h (µg/mL)
Write down the numeric answer in µg/mL and omit the unit.

Exam item: # query: solubility at 48 h of entry O=C(O)C1=CN(Cc2ccccc2)C=C(C(=O)O)C1c1ccccc1 [DHP-2]
Marked response: 2300

----------
Answer each item with its documented solubility at 48 h.
Assay: Thermodynamic solubility measurement by HPLC in HDAC buffer / DMSO
Assay type: physicochemical
Details: 5% DMSO in HDAC buffer, 24.5 °C, aqueous with cosolvent or surfactant or cyclodextrin, thermodynamic from solid; 5% DMSO/HDAC, ambient (24-25° C.), 48 hours
State the answer as a number, implicitly in µg/mL.

Exam item: Entry under review: C=CCc1ccc(O)c(-c2ccc(O)c(CC=C)c2)c1 [Honokiol, 5,3′-Diallyl-2,4′-dihydroxybiphenyl, reference compound] . Reported solubility at 48 h?
Marked response: 120

Exam item: Entry O=C(O)C1=CN(Cc2ccccc2)C=C(C(=O)O)C1c1ccccc1 : reported solubility at 48 h = ?
Marked response: 2140
